Reference source for all entries: the supplement of paper PMC9233669

system: biotinyl-Phe-oxazolone; assay: self-aminoacylation, catalytic enhancement (BFO) (fold over background); higher = more active; k-Seq, kA / k0A0; sequences stand for … in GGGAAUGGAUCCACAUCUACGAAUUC…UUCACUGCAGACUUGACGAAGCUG
Fewer inactive variants are shown than the library holds.
MEASURED_METRIC: self-aminoacylation

Problem: Respond only with self-aminoacylation recorded for CUACUUCAAACAAACGGUCUU [Fam1A.1 aminoacylation ribozyme variant]
Solution: 0.824

Problem: Respond only with self-aminoacylation recorded for CUAAUUCAAACAAUCGCUCUG [Fam1A.1 aminoacylation ribozyme variant]
Solution: 0.713

Problem: Respond only with self-aminoacylation recorded for AGGUUUGCUAAUAGUCGCAAG [Fam3.1 aminoacylation ribozyme variant]
Solution: 22

Problem: Respond only with self-aminoacylation recorded for CUACGUCAAACAGUCGGUCUG [Fam1A.1 aminoacylation ribozyme variant]
Solution: 3.92

Problem: Respond only with self-aminoacylation recorded for AUUACCUUGGUCACCGAGUGA [Fam2.1 aminoacylation ribozyme variant]
Solution: 23.4

Problem: Respond only with self-aminoacylation recorded for CCACACUUCCAGUAAUCGGUC [Fam1B.1 aminoacylation ribozyme variant]
Solution: 0.618

Problem: Respond only with self-aminoacylation recorded for AUGCACCUAGGUCAUUGGGUG [Fam2.2 aminoacylation ribozyme variant]
Solution: 16.6

Problem: Respond only with self-aminoacylation recorded for CUCAUUCAAACAAUCGGUCUG [Fam1A.1 aminoacylation ribozyme variant]
Solution: 11.7
